- Test system: DMS 273 small cell lung
- testProtocol: NCI tumour cell line growth inhibition, 48 h
quantityMeasured: TGI

Known results for molecules:
For reference, reported TGI for CCCCCCCCCCCCCCCCOCC(COP(=O)([O-])OCC[N+](C)(C)C)OCCCCCCCCCCCCCCCC (stereo not given) stands at > 100 µM

Reported TGI for "O=c1c2ccccc2c2nc3ccccc3nc2n1C1CCCCC1" was > 100 µM

Notebook: "COc1ccc(C(c2c(O)c3ccccc3n(C)c2=O)c2c(O)c3ccccc3n(C)c2=O)cc1" , TGI read as > 100 µM

Entry "COc1ccc2c(c1)OC[C@@H]1c3cc4c(cc3O[C@H]21)OCO4" — recorded TGI = > 100 µM

TGI reported for this molecule "CC#C[I+]c1ccccc1" : 27.8 µM

Lab note: CCCCN1C(=O)NC(Cc2ccccc2)C1=O (stereo not given) gave TGI of > 100 µM

Looking up "CC(C)(C)c1ccc(C(O)c2ccc(C(C)(C)C)cc2)cc1" , I see its TGI listed as 25.9 µM

# TGI (molecule: Cc1cc(Cl)cc2c1NC(=O)C2(O)C(C)C(=O)c1ccc(Cl)cc1 (stereo not given) ) is > 100 µM

What the record says about "N.N.NCCCCN.O=C([O-])C1(C(=O)[O-])CCC1.O=C([O-])C1(C(=O)[O-])CCC1.[Pt+4].[Pt+4]" : TGI is > 100 µM

response.value for "N#CCCN(c1ccc(-c2nnc(NC(=O)CNNC(=O)CC(=O)Nc3ccccc3)s2)cc1)S(=O)(=O)c1ccccc1" (field: TGI) = > 100 µM

Further cases:
Short answer for "CC1=C(C(=O)NCc2ccccc2)C(c2ccccc2[N+](=O)[O-])C(C(=O)NCc2ccccc2)=C(C)N1" : TGI was 25.4 µM

Sample "NC1=N/C(=C2/CCNC(=O)c3[nH]c(Br)cc32)C(=O)N1" ; TGI observed: > 100 µM

Kindly note the recorded TGI for COc1ccc(/C=C2\CCC(C)(CN(C)C)C2=O)cc1 (stereo not given) , which is > 100 µM

Measured TGI, O=C(Nc1nc2ncn(CC(COc3ccccc3)OC(=O)c3ccccc3)c2c(=O)[nH]1)c1ccccc1 (stereo not given) : > 100 µM

The molecule listed as COC(=O)C1=C(CO)C2C=CC1C2 (stereo not given) has a reported TGI of > 100 µM

* * *

- Tested on: SK-MEL-28 melanoma
- testProtocol: NCI tumour cell line growth inhibition, 48 h
The molecules listed here are annotated with their TGI.
Field format: number, assumed µM, no unit text.

Here is how some molecules turned out for TGI.
response.value for "CC(C)n1c2c([n+](C)c1/C=C/c1ccccc1)C(=O)c1ccccc1C2=O" (field: TGI) = 1.6

Measured TGI, "COc1cc(-c2cc(-c3nc4ccc(Cl)cc4[nH]3)[nH]n2)cc(OC)c1OC" : 7.11

Per the record, "NS(=O)(=O)c1ccc(CNc2nc(-c3cccs3)nc3ccc(I)cc23)cc1" has TGI of 40.2

Entry "CC1=C(C(=O)NCc2ccccc2)C(c2ccccc2[N+](=O)[O-])C(C(=O)NCc2ccccc2)=C(C)N1" ; TGI = 26

Reported TGI for COc1ccc2c(c1)N=C1CSC(c3cc([N+](=O)[O-])ccc3Cl)N1C2 (stereo not given) was 83.7

Continuing:
"O=C(Cc1ccc(Cl)c(Cl)c1)N(CCc1ccc(Cl)c(Cl)c1)CCN1CCCC1" has a reported TGI of 2.99

Attribution: PubChem BioAssay (NCI)
